# assayed-target: EphA2 endogenously expressed on PC3 prostate cancer cells (UniProt P29317 24-976, limits assumed)
# Sequence (P29317 24-976 limits assumed): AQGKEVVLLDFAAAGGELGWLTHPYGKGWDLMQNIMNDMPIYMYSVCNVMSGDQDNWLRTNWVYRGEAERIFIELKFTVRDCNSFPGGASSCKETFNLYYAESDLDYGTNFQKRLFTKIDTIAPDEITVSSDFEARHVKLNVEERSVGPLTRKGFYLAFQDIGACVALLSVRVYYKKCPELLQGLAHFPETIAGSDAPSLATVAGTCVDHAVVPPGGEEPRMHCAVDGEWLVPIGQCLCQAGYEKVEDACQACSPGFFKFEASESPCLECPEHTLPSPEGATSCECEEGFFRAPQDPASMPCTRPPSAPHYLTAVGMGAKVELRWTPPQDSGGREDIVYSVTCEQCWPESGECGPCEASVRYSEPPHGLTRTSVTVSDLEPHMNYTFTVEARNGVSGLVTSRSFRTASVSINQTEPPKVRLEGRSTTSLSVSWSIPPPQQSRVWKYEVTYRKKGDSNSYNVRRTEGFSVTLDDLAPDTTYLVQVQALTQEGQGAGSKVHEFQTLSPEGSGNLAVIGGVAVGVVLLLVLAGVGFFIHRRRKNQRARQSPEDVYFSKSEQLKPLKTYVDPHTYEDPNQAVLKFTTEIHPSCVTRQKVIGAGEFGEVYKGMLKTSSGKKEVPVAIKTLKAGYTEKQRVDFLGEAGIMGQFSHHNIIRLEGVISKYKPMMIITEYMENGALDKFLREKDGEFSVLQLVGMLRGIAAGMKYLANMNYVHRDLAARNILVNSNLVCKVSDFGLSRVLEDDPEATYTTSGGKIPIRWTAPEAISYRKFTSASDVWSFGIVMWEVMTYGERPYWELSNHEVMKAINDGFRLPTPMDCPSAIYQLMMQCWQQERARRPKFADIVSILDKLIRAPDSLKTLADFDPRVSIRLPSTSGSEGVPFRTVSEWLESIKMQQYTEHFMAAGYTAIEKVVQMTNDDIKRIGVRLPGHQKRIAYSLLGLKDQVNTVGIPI
# measurement-notes: cell-based or functional assay
Where no end group is shown, it is not given here. [ ]: non-standard residue; d: D form. βAla = NCCC(=O)O
measurement-name: βlig (bias factor)
I only need the number, thanks.

* Click dimer (N-ter) (not fully specified; propargylglycine (Pra) at position 1, joined by a click linkage to KN3 of the other chain; C-terminal amide; azido-lysine (KN3) at position 1, joined by a click linkage to Pra of the other chain; C-terminal amide) peptide 1: KAWLAYPDSVPYRPK peptide 2: XGAWLAYPDSVPYRPK | 0.5
* [βAla]WLAYPDSVPYGSGC (also: homodimer, disulfide at 15, other end not in the chain, C-terminally disulfide-linked homodimer made from monomer (9*); also called dimer (1); dimeric peptide (1)) [βA-WLA-YGSGC dimer (C-ter)] | 0.506

Now let's try a different one.
Form: binder = CGAWLAYPDSVPYRPK-NH2 (also: homodimer: N-terminal Cys of two chains joined by disulfide) [CGA-WLA-YRPKam dimer (N-ter)] ; βlig (bias factor) = 0.51
